test-system: recombinant human A2A receptors (Homo sapiens, UniProt P29274)
Construct: expressed in transfected cells; host or cells: Sf9 insect cells infected with virus; membranes
Sequence (P29274 whole entry): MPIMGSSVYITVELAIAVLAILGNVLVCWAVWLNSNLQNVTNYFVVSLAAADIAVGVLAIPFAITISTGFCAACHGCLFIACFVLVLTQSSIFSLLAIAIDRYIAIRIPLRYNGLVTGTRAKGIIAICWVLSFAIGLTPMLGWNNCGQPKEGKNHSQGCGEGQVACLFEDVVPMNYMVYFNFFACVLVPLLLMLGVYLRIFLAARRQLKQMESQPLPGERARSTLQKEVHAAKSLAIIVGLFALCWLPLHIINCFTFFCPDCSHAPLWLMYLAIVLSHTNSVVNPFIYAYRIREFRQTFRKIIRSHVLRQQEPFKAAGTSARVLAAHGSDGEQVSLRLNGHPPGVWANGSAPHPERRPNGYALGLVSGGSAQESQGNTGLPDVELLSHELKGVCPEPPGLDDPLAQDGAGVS
assay-summary: Radioligand competition binding with 125I-APE or 125I-ZM241385, Sf9 cell membranes
test-conditions: 125I-APE or 125I-ZM241385, Sf9 membranes; class symbols
Protocol: Cell culture and membrane preparation. Sf9 cells were cultured in Grace's medium supplemented with 10% fetal bovine serum, 2.5 μg/ml amphotericin B and 50 μg/ml gentamycin in an atmosphere of 50% N2/50% O2. Viral infection was performed at a density of 2.5×10^6 cells/mL with a multiplicity of infection of two for each virus used. […] Radioligand Binding Assays. […] Nonspecific binding was measured in the presence of 50 μM NECA.
pKi: −log10 of the molar value.
test-readout: pKi

INSERT INTO results (compound, measured_value) VALUES
  ('CCNC(=O)[C@H]1O[C@@H](n2cnc3c(N)nc(C#CCC4CCN(C(=O)Oc5ccc(OC)cc5)CC4)nc32)[C@@H](O)C1O (stereo partly drawn)', '> 9.00'),
  ('Nc1nc(C#CCC2CCN(C(=O)Oc3ccc(F)c(F)c3)CC2)nc2c1ncn2[C@@H]1O[C@H](C(=O)NC2CC2)C(O)[C@@H]1O (stereo partly drawn)', '> 9.00'),
  ('COC(=O)c1ccc(OC(=O)N2CCC(CC#Cc3nc(N)c4ncn([C@@H]5O[C@H](CO)[C@@H](O)[C@H]5O)c4n3)CC2)cc1', '> 9.00');

----------
Tested on: Purified human neutrophils
assay-summary: Luminol enhanced chemiluminescence (neutrophil oxidative activity), fMLP stimulated
Format: cell-based
test-conditions: Homo sapiens, Neutrophil; read-out: Functional
pEC50: −log10 of the molar value.
test-readout: pEC50

INSERT INTO assay_data (compound, test_system, test_readout, measured_value) VALUES
  ('Nc1nc(C#CCC2CCN(C(=O)Oc3ccc(Cl)cc3)CC2)nc2c1ncn2[C@@H]1O[C@H](C(=O)NC2CC2)C(O)[C@@H]1O (stereo partly shown) [Compound 17]', 'Purified human neutrophils', 'pEC50', '> 9.00'),
  ('Nc1nc(C#CCC2CCN(C(=O)Oc3cccc([N+](=O)[O-])c3)CC2)nc2c1ncn2[C@@H]1O[C@H](C(=O)NC2CC2)C(O)[C@@H]1O (stereo partly shown) [Compound 56]', 'Purified human neutrophils', 'pEC50', '> 9.00'),
  ('Nc1nc(C#CCC2CCN(C(=O)Oc3ccccc3Cl)CC2)nc2c1ncn2[C@@H]1O[C@H](C(=O)NC2CC2)C(O)[C@@H]1O (stereo partly shown) [Compound 22]', 'Purified human neutrophils', 'pEC50', '> 8.00'),
  ('Nc1nc(C#CCC2CCN(C(=O)Nc3cccc(Cl)c3)CC2)nc2c1ncn2[C@@H]1O[C@H](CO)C(O)[C@@H]1O (stereo partly shown) [Compound 46]', 'Purified human neutrophils', 'pEC50', '> 7.00'),
  ('Nc1nc(C#CCC2CCN(C(=O)OCCOCc3ccccc3)CC2)nc2c1ncn2[C@@H]1O[C@H](CO)C(O)[C@@H]1O (stereo partly shown) [Compound 7]', 'Purified human neutrophils', 'pEC50', '> 8.00'),
  ('Nc1nc(C#CCC2CCN(C(=O)Oc3ccc(Cl)c(Cl)c3)CC2)nc2c1ncn2[C@@H]1O[C@H](CO)C(O)[C@@H]1O (stereo partly shown) [Compound 55]', 'Purified human neutrophils', 'pEC50', '> 8.00'),
  ('Nc1nc(C#CCC2CCN(C(=O)Oc3ccc([N+](=O)[O-])cc3)CC2)nc2c1ncn2[C@@H]1O[C@H](CO)[C@@H](O)[C@H]1O [Compound 12]', 'Purified human neutrophils', 'pEC50', '> 9.00'),
  ('CCNC(=O)[C@H]1O[C@@H](n2cnc3c(N)nc(C#CCC4CCN(C(=O)Oc5ccccc5Cl)CC4)nc32)[C@@H](O)C1O (stereo partly shown) [Compound 31]', 'Purified human neutrophils', 'pEC50', '> 8.00'),
  ('Nc1nc(C#CCC2CCN(C(=O)Oc3ccc(F)cc3)CC2)nc2c1ncn2[C@@H]1O[C@H](C(=O)NC2CC2)C(O)[C@@H]1O (stereo partly shown) [Compound 8]', 'Purified human neutrophils', 'pEC50', '> 9.00'),
  ('Nc1nc(C#CCC2CCN(C(=O)Oc3ccc([N+](=O)[O-])cc3)CC2)nc2c1ncn2[C@@H]1O[C@H](C(=O)NC2CC2)C(O)[C@@H]1O (stereo partly shown) [Compound 10]', 'Purified human neutrophils', 'pEC50', '> 9.00'),
  ('Nc1nc(C#CCC2CCN(C(=O)Oc3ccc(Cl)cc3)CC2)nc2c1ncn2[C@@H]1O[C@H](CO)[C@@H](O)[C@H]1O [Compound 27]', 'Purified human neutrophils', 'pEC50', '> 8.00'),
  ('Nc1nc(C#CCC2CCN(C(=O)Oc3ccccc3)CC2)nc2c1ncn2[C@@H]1O[C@H](CO)[C@@H](O)[C@H]1O [Compound 4, reference compound]', 'Purified human neutrophils', 'pEC50', '> 8.00'),
  ('Cc1ccc(OC(=O)N2CCC(CC#Cc3nc(N)c4ncn([C@@H]5O[C@H](CO)[C@@H](O)[C@H]5O)c4n3)CC2)cc1C [Compound 53]', 'Purified human neutrophils', 'pEC50', '> 8.00');

Origin of values: patent US7888329B2
